tested on: SK-MEL-5 melanoma; assay: NCI-60 one-dose screen, 48 h (100 = growth as untreated, 0 = no growth, -100 = all killed); conditions: 10 µM unless noted
The panel holds about 83,000 compounds, 20% with a hit somewhere; the sample as a whole holds those more often. Activity calls are given as the source filed them. The calls were made as follows: active = growth percent below 10; inactive = the rest.

>  <compound>
O=C(CN1CCN(c2cc(=O)n(-c3ccccc3)c3ccccc23)CC1)Nc1ccc([N+](=O)[O-])cc1

>  <growth>
74.1% (inactive)

$$$$
>  <compound>
CCNC(=O)Oc1ccc(/C(=C(/C)c2ccccc2)c2ccc(OCCN3CCCC3)cc2)cc1

>  <growth>
25.4% (inactive)

$$$$
>  <compound>
Oc1ccc(CSc2nnc(-c3ccc(Oc4ccccc4)cc3)o2)c2cccnc12

>  <growth>
16.6% (inactive)

$$$$
>  <compound>
O=C(NCCCCCCNC(=O)c1c2c(nc3ccccc13)-c1cccnc1SC2)c1c2c(nc3ccccc13)-c1cccnc1SC2

>  <growth>
84.3% (inactive)

$$$$
>  <compound>
Cc1cc2nc(C(Cl)Cl)nc(-c3ccco3)n2n1

>  <growth>
97.8% (inactive)

$$$$
>  <compound>
O=C(NCCCNc1cc(-c2cn(-c3ccccc3)nc2-c2cccc(O)c2)ccn1)Nc1ccc(F)cc1

>  <growth>
-55% (active)

$$$$
>  <compound>
N#Cc1c(NC(=O)c2ccc(F)c(Cl)c2)sc2c1CCC(=O)C2

>  <growth>
-75.6% (active)

$$$$
>  <compound>
CC(=O)NC(C)(C)C(=O)N[C@@H](C)C(=O)NC(C)(C)C(=O)N[C@@H](C)C(=O)NC(C)(C)C(=O)N[C@@H](C)C(=O)N[C@@H](CCC(N)=O)C(=O)NC(C)(C)C(=O)N[C@H](C(=O)NC(C)(C)C(=O)NCC(=O)N[C@@H](CC(C)C)C(=O)NC(C)(C)C(=O)N1CCC[C@H]1C(=O)N[C@H](C(=O)NC(C)(C)C(=O)NC(C)(C)C(=O)N[C@@H](CCC(N)=O)C(=O)N[C@@H](CCC(N)=O)C(=O)N[C@H](CO)CC1CCCCC1)C(C)C)C(C)C

>  <growth>
-33.6% [5 µM] (active)

$$$$
>  <compound>
O=C(COc1ccc(C2SCC(=O)N2c2ccc(F)cc2)cc1)c1ccccc1 (stereo unspecified)

>  <growth>
97.7% (inactive)

$$$$
>  <compound>
Oc1ccc(CSc2nnc(-c3cnccn3)n2-c2ccccc2)c2cccnc12

>  <growth>
-22.6% (active)

$$$$
>  <compound>
C#C[C@]1(O)CC[C@H]2[C@@H]3CC=C4c5sc(Nc6cccc(Cl)n6)nc5CC[C@]4(C)[C@H]3CC[C@@]21C

>  <growth>
-90.7% (active)

$$$$
>  <compound>
Nc1nc(-c2cccc([N+](=O)[O-])c2)c(N=Nc2ccccc2Cl)s1

>  <growth>
80.8% (inactive)

$$$$
>  <compound>
C=CCn1c(SCC(=O)Nc2cccc(C(=O)/C=C/c3ccc(C)cc3)c2)nc2ccccc2c1=O

>  <growth>
97.2% (inactive)

$$$$
>  <compound>
N#C/C(=C\c1ccc2ccccc2c1)C(=O)Nc1sc2c(c1C#N)CCC2

>  <growth>
98% (inactive)

$$$$
>  <compound>
C#C[C@]1(O)CC[C@H]2[C@@H]3CC=C4c5sc(Nc6nc(C)cc(OC)n6)nc5CC[C@]4(C)[C@H]3CC[C@@]21C

>  <growth>
17.9% (inactive)

$$$$
>  <compound>
O=C(NNc1nc2cc(F)cc(F)c2n2cccc12)c1ccncn1

>  <growth>
-4.3% (active)

$$$$
>  <compound>
COc1cc(-c2noc(C[C@@H](NC(=O)OCc3ccccc3)C(C)C)n2)cc(OC)c1OC

>  <growth>
99.3% (inactive)

$$$$
>  <compound>
CCc1ccc(NC(=O)N[C@@H](Cc2cccc(F)c2)C(=O)N[C@@H]2C(=O)N3CCC[C@H]3C(=O)N3CCCC[C@H]3C(=O)N[C@@H](C)C(=O)N3C[C@H](C)C[C@H]3C(=O)O[C@H]2C)c(F)c1

>  <growth>
-20.9% (active)

$$$$
>  <compound>
C[C@@H]1C[C@H]2C(=O)OCC(NC(=O)[C@H](Cc3cc(F)cc(F)c3)NC(=O)Nc3ccc(Cl)cc3F)C(=O)N3CCC[C@H]3C(=O)N3CCCC[C@H]3C(=O)N[C@@H](C)C(=O)N2C1 (stereo partly specified)

>  <growth>
-12.3% (active)

$$$$
>  <compound>
NC(=O)c1c(NC(=O)c2cccc(C(F)(F)F)c2F)sc2c1CCC(=O)C2

>  <growth>
-3.83% (active)

$$$$
>  <compound>
COc1cc2cc(Oc3ccc(NC(=O)Nc4cc(C(F)(F)F)cc(C(F)(F)F)c4)cc3)c(C)nc2cc1OCCN(C)C

>  <growth>
102% (inactive)

$$$$
>  <compound>
COc1cc2c3c(n(CCCNC4CCCCC4)c(=O)c2cc1OC)-c1cc2c(cc1C3=O)OCO2

>  <growth>
97.2% (inactive)

$$$$
>  <compound>
O=C1Nc2ccc(Br)cc2/C1=N\c1nnc(-c2ccc(Cl)cc2)o1

>  <growth>
77.2% (inactive)

$$$$
>  <compound>
CCCC(=O)NC(c1cccnc1)c1ccc2c(C)ccnc2c1O (stereo unspecified)

>  <growth>
4.06% (active)

$$$$
>  <compound>
O=C(c1ccc(O)cc1)[C@@H]1[C@@H]2CCCN2[C@@]2(C(=O)N(C(=O)c3ccc(F)cc3)c3ccccc32)[C@H]1c1ccc(F)cc1

>  <growth>
95% (inactive)

$$$$
>  <compound>
CN1CCN(Cc2ccc(NC(=O)c3cncc(C#Cc4[nH]nc5ncncc45)c3)cc2C(F)(F)F)CC1

>  <growth>
71.2% (inactive)

$$$$
>  <compound>
CC1COc2c(N3CCN(C)CC3)c(F)cc3c(=O)c(C(=O)N/N=C/c4cc[nH]c4)cn1c23 (stereo unspecified)

>  <growth>
25.3% (inactive)

$$$$
>  <compound>
C=C(C)C(=O)O[C@H]1C[C@@]2(C)OC(=CC2=O)[C@H](C)[C@H](O)[C@H]2OC(=O)C(=C)[C@@H]21

>  <growth>
88.2% (inactive)

$$$$
>  <compound>
C/C=C/[C@@H]1C=C[C@@H]2C[C@H](C)CC[C@H]2[C@]1(C)/C(O)=C1/C(=O)[C@H](CO)N(C)C1=O

>  <growth>
52.4% (inactive)

$$$$
>  <compound>
CC1(C)CC[C@]2(C(=O)O)CC[C@]3(C)C(=CCC4[C@@]5(C)C[C@@H](O)[C@@H]6OC(c7cccc([N+](=O)[O-])c7)OC[C@@]6(C)C5CC[C@]43C)C2C1 (stereo partly specified)

>  <growth>
64.5% (inactive)

$$$$
>  <compound>
Cn1cc(-c2nn3cc(-c4ccncc4)nc3s2)c2cc(Cl)ccc21

>  <growth>
55.7% (inactive)

$$$$
